Hello, the source for this data is paper PMC5311487, in case you need it.

# study target: T1, MEC-8 RRM1 (Caenorhabditis elegans, UniProt G5ECJ4 28-123, C54A;C102A)
# T1 sequence: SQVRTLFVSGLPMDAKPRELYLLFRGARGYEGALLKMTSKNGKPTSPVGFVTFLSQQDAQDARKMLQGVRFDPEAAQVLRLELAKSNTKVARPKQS
# experimental details: ITC
assay readout: Kd

stdin: Looking for the measured Kd of AACACAUUUUUUUUAACACA (ssRNA) [10-nt spacer (G2A/G16A)] , can you help?
stdout: 900 nM
